- Experimental System: L-lactate dehydrogenase (Plasmodium falciparum (isolate CDC / Honduras)) (UniProt Q27743)
- Sequence (Q27743 whole entry, looked up): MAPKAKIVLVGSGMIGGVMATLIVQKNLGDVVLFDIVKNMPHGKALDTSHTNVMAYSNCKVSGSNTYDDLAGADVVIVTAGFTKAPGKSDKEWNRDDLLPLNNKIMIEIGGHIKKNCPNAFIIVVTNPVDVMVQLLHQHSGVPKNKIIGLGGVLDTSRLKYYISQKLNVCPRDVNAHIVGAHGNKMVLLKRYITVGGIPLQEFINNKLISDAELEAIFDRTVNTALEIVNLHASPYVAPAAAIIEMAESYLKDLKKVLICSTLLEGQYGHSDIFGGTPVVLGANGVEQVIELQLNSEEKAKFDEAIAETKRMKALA
- Assay Procedure: PfLDH activity inhibition – cell lysate, 3D7 strain, counter-screen for P. falciparum growth inhibition project (AID 2304);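 also: 0% = vehicle and 100% = reference inhibitor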
- Settings: P. falciparum 3D7 crude extract, LDH APAD/NBT absorbance; at 2 µM; hits give high values
# inhibition annotations

{"Structure": "CC(=O)c1ccc(-c2ccccc2)s1", "Experimental System": "L-lactate dehydrogenase (Plasmodium falciparum (isolate CDC / Honduras)) (UniProt Q27743)", "inhibition / %": 8}
{"Structure": "O=C(Nc1ccc(Cl)cc1F)NC1CCN(CCCCCNC(=O)[C@@H]2C[C@H]2c2ccc(Cl)c(Cl)c2)CC1", "Experimental System": "L-lactate dehydrogenase (Plasmodium falciparum (isolate CDC / Honduras)) (UniProt Q27743)", "inhibition / %": -5}
{"Structure": "COc1cc(OC)c(OC)cc1C=NNc1cc(C)nc2ccccc12", "Experimental System": "L-lactate dehydrogenase (Plasmodium falciparum (isolate CDC / Honduras)) (UniProt Q27743)", "inhibition / %": 0}
{"Structure": "COc1ccc(NS(=O)(=O)c2ccc(C(=O)Nc3ccc(C(F)(F)F)cc3)cc2)cc1N1CCN(CC2CC2)CC1", "Experimental System": "L-lactate dehydrogenase (Plasmodium falciparum (isolate CDC / Honduras)) (UniProt Q27743)", "inhibition / %": 1}
{"Structure": "O=C(N[C@@H](CC1CCCCC1)C(=O)NC1CC1)c1ccc(O)c(-c2cccc(C(F)(F)F)c2)c1", "Experimental System": "L-lactate dehydrogenase (Plasmodium falciparum (isolate CDC / Honduras)) (UniProt Q27743)", "inhibition / %": -4}
{"Structure": "CN(C)c1cc(NC(=O)Nc2ccc(SC(F)(F)F)cc2)c2ccccc2n1", "Experimental System": "L-lactate dehydrogenase (Plasmodium falciparum (isolate CDC / Honduras)) (UniProt Q27743)", "inhibition / %": -4}
{"Structure": "COc1ccc(NC(=O)c2cccc(Br)c2)cc1N1CCN(CCCCCCCN2CCN(c3cc(NC(=O)c4cccc(Br)c4)ccc3OC)CC2)CC1", "Experimental System": "L-lactate dehydrogenase (Plasmodium falciparum (isolate CDC / Honduras)) (UniProt Q27743)", "inhibition / %": 0}
{"Structure": "CCCC(=O)Nc1ccc(OCCCN(Cc2ccccc2OC(F)(F)F)c2ccc(C#N)c(C(F)(F)F)c2)cc1", "Experimental System": "L-lactate dehydrogenase (Plasmodium falciparum (isolate CDC / Honduras)) (UniProt Q27743)", "inhibition / %": -2}
{"Structure": "O=C(Nc1ccc(-c2cccc(CN3CCC(O)CC3)c2)cc1)c1cccc(Cl)c1", "Experimental System": "L-lactate dehydrogenase (Plasmodium falciparum (isolate CDC / Honduras)) (UniProt Q27743)", "inhibition / %": 3}
{"Structure": "NC(N)=NN=CC(=O)Nc1cccc(C(F)(F)F)c1", "Experimental System": "L-lactate dehydrogenase (Plasmodium falciparum (isolate CDC / Honduras)) (UniProt Q27743)", "inhibition / %": 1}
{"Structure": "Cc1cc(N2CCCC2)nc(Nc2ccc(NC(=O)c3ccc4c(c3)OCO4)cc2)n1", "Experimental System": "L-lactate dehydrogenase (Plasmodium falciparum (isolate CDC / Honduras)) (UniProt Q27743)", "inhibition / %": -4}
{"Structure": "Cc1cc(NN=Cc2cccc(F)c2)c2ccc(F)cc2n1", "Experimental System": "L-lactate dehydrogenase (Plasmodium falciparum (isolate CDC / Honduras)) (UniProt Q27743)", "inhibition / %": -2}
{"Structure": "CCNc1cc(C(=O)N[C@@H](Cc2ccccc2)[C@H](O)CNC23CCC(CC2)CC3)cc(N2CCCCS2(=O)=O)c1", "Experimental System": "L-lactate dehydrogenase (Plasmodium falciparum (isolate CDC / Honduras)) (UniProt Q27743)", "inhibition / %": 4}
{"Structure": "Fc1ccc2nc(-c3ccc(-c4ccc(CNCCc5ccncc5)cc4)cc3)[nH]c2c1", "Experimental System": "L-lactate dehydrogenase (Plasmodium falciparum (isolate CDC / Honduras)) (UniProt Q27743)", "inhibition / %": 0}
{"Structure": "c1cc(CNCCc2ccncc2)cc(-c2csc(-c3nc4ccccc4[nH]3)c2)c1", "Experimental System": "L-lactate dehydrogenase (Plasmodium falciparum (isolate CDC / Honduras)) (UniProt Q27743)", "inhibition / %": -8}
{"Structure": "NCc1cccc(-c2cccc(CNC3CCN(Cc4ccccc4)CC3)c2)c1", "Experimental System": "L-lactate dehydrogenase (Plasmodium falciparum (isolate CDC / Honduras)) (UniProt Q27743)", "inhibition / %": 2}
{"Structure": "CS(=O)(=O)CCN(CCS(C)(=O)=O)Cc1ccc(-c2ccc3ncnc(Nc4ccc(OCc5cccc(F)c5)c(Cl)c4)c3c2)o1", "Experimental System": "L-lactate dehydrogenase (Plasmodium falciparum (isolate CDC / Honduras)) (UniProt Q27743)", "inhibition / %": -3}
{"Structure": "Cc1c(C)n(C2CCCC2)c2ncnc(OC3CCN(CC(=O)NCC4CC4)CC3)c12", "Experimental System": "L-lactate dehydrogenase (Plasmodium falciparum (isolate CDC / Honduras)) (UniProt Q27743)", "inhibition / %": 1}
{"Structure": "Cc1ccccc1Cn1c(CN2CCC(C(=O)NC3CC3)CC2)cc2ccccc21", "Experimental System": "L-lactate dehydrogenase (Plasmodium falciparum (isolate CDC / Honduras)) (UniProt Q27743)", "inhibition / %": -2}

---

- Experimental System: L-lactate dehydrogenase (Plasmodium falciparum (isolate CDC / Honduras)) (UniProt Q27743)
- Assay Procedure: PfLDH activity inhibition – cell lysate, 3D7 strain, counter-screen for P. falciparum growth inhibition project (AID 2304);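 also: 0% = vehicle and 100% = reference inhibitor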
- Settings: P. falciparum 3D7 crude extract, LDH APAD/NBT absorbance; at 2 µM; hits give high values

{"Molecule": "CCC(C)(C)n1c(C)cc2c3c(N)nc(N)nc3ccc21", "Measurement Unit": "%", "inhibition": 1}
{"Molecule": "NC(=O)COc1c(C2CCN(CCCCNC(=O)c3ccc(-c4ccc(Cl)cc4)c(O)c3)CC2)ccc2c1CCCC2", "Measurement Unit": "%", "inhibition": 4}
{"Molecule": "O=C(c1ccc(-c2ccc(-c3nc4ccc(C(F)(F)F)cc4[nH]3)s2)cc1)N1CCN(CCc2ccccc2)CC1", "Measurement Unit": "%", "inhibition": -5}
{"Molecule": "CC(C)(CN1CCCC1)CN(Cc1ccc(-c2ccc(C(F)(F)F)cc2)cc1)C(=O)Cn1c(CCc2cccc(F)c2F)nc(=O)c2ccccc21", "Measurement Unit": "%", "inhibition": -3}
{"Molecule": "COc1cc(Nc2nccc(N3CCC(NC(=O)c4cccc(NC(C)=O)c4)C3)n2)cc(OC)c1OC (centres undefined)", "Measurement Unit": "%", "inhibition": -6}
{"Molecule": "C[C@H]1CN(Cc2cccc(-c3cc(CNC(=O)c4cccc(CN5CCN(C/C=C/c6ccccc6)CC5)c4)ccc3F)c2)CCN1", "Measurement Unit": "%", "inhibition": -2}
{"Molecule": "CN1CCN(Cc2nc(-c3ccc4c(Nc5ccc(F)c(O)c5)ccnc4c3)cs2)CC1", "Measurement Unit": "%", "inhibition": 7}
{"Molecule": "CC(C)CC(=O)N1CCNC[C@@H]1C(=O)NCc1ccc(Cl)c(Cl)c1", "Measurement Unit": "%", "inhibition": -3}
{"Molecule": "CCc1ccccc1OCCCON1C(N)=NC(N)=NC1(C)C", "Measurement Unit": "%", "inhibition": -2}

---

Recorded growth inhibition, one value per entry.
- Assay Procedure: inhibition of 3D7 malaria parasite growth – strain 3D7 (AID 2306);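 also: 0% = DMSO wells and 100% = chloroquine plus artemisinin control wells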
- Settings: P. falciparum 3D7 erythrocytic growth, LDH absorbance, 72 h; at 2 µM; hits give high values

{"Structure": "O=C(/C=C/c1ccc(F)c(Br)c1)NCCCCCN1CCC(c2c[nH]c3ccccc23)CC1", "growth inhibition / %": 92}
{"Structure": "CCc1ccc(CN(Cc2ccc(C)cc2)Cc2ccc(NC(C)=O)cc2)cc1", "growth inhibition / %": 89}
{"Structure": "Cc1cc2ncn(-c3nccc(NCc4ccc(F)c(C)c4)n3)c2cc1C", "growth inhibition / %": 90}
{"Structure": "O=S(=O)(NCCN1CCCC1)c1ccc(-c2ccc(CNCc3ccccc3)cc2)cc1", "growth inhibition / %": 99}
{"Structure": "CCCCCCc1cc2cc(-c3csc(C=Cc4ccccc4)n3)c(=O)oc2cc1O", "growth inhibition / %": 96}

---

- Assay Procedure: HepG2 cytotoxicity, primary screen, cytotoxicity control for P. falciparum antimalarial project, cell-based, ATP luminescence (AID 2303);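 also: 0% = DMSO wells and 100% = digitonin-killed cells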
- Settings: HepG2 viability, 24-48 h, at 10 µM
Active and inactive are the calls of the source.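 The calls were made as follows: active = inhibition above 50%; inactive = the rest.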
Outcome codes: active, inactive

{"Compound": "CC1(C)CN2CCCC2c2cc(NC(=O)/C=C/c3ccccc3Cl)ccc21 (stereo not given)", "Cat": "inactive"}
{"Compound": "O=C(Nc1ccc(C(F)(F)F)cc1)c1cccc(S(=O)(=O)NCC2CCCN(CC3CCCCC3)C2)c1 (stereo not given)", "Cat": "inactive"}
{"Compound": "CCCNC(=O)Nc1cc2cc(-c3ccc(CN4CCCC4)cc3)ccc2n2c(C)nnc12", "Cat": "active"}
{"Compound": "O=c1cc(-c2ccc3ccccc3c2)[nH]c2ccccc12", "Cat": "inactive"}
{"Compound": "O=C(Nc1ccc(Cn2ncc(N3CCCNCC3)c(Cl)c2=O)cc1)Nc1cccc(Oc2ccccc2)c1", "Cat": "inactive"}
